biological target: Alexa647-conjugated rHuVEGF (Invitrogen Cat #PHG0143) (human, UniProt P15692-4 27-191, limits assumed, Alexa647-conjugated); assay: flow cytometry, surface-bound antibody on 293c18 cells, 3 nM Alexa647-rHuVEGF; set-up: reference not given here
Sequence (P15692 other isoform, or with tags, fused parts or gaps limits assumed): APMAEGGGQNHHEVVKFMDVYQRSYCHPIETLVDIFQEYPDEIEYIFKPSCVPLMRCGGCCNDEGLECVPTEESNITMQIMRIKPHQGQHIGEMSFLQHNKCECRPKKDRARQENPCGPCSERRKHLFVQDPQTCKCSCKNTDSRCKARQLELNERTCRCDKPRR
Reported MFI is given for each of the following binders.
ENDPOINT_LABEL: MFI

INSERT INTO measurements (binder, endpoint_label, test_result) VALUES
  ('VH K64Q (antibody, V domains shown, copies: 2 + 2) VH: EVQLVESGGGLVQPGGSLRLSCAASGYTFTNYGMNWVRQAPGKGLEWVGWINTYTGEPTYAADFQRRFTFSLDTSKSTAYLQMNSLRAEDTAVYYCAKYPHYYGSSHWYFDVWGQGTLVTVSS VL: DIQMTQSPSSLSASVGDRVTITCSASQDISNYLNWYQQKPGKAPKVLIYFTSSLHSGVPSRFSGSGSGTDFTLTISSLQPEDFATYYCQQYSTVPWTFGQGTKVEIK', 'MFI', 230),
  ('VH K64S (antibody, V domains shown, copies: 2 + 2) VH: EVQLVESGGGLVQPGGSLRLSCAASGYTFTNYGMNWVRQAPGKGLEWVGWINTYTGEPTYAADFSRRFTFSLDTSKSTAYLQMNSLRAEDTAVYYCAKYPHYYGSSHWYFDVWGQGTLVTVSS VL: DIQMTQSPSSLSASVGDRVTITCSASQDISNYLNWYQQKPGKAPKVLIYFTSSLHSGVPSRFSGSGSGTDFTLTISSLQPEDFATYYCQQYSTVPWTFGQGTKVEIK', 'MFI', 168),
  ('VH H97E.Y98F (antibody, V domains shown, copies: 2 + 2) VH: EVQLVESGGGLVQPGGSLRLSCAASGYTFTNYGMNWVRQAPGKGLEWVGWINTYTGEPTYAADFKRRFTFSLDTSKSTAYLQMNSLRAEDTAVYYCAKYPEFYGSSHWYFDVWGQGTLVTVSS VL: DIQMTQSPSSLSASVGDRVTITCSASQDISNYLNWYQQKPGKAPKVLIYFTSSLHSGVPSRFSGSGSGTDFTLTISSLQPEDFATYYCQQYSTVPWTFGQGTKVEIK', 'MFI', 310),
  ('VH Y53F.K64Q (antibody, V domains shown, copies: 2 + 2) VH: EVQLVESGGGLVQPGGSLRLSCAASGYTFTNYGMNWVRQAPGKGLEWVGWINTFTGEPTYAADFQRRFTFSLDTSKSTAYLQMNSLRAEDTAVYYCAKYPHYYGSSHWYFDVWGQGTLVTVSS VL: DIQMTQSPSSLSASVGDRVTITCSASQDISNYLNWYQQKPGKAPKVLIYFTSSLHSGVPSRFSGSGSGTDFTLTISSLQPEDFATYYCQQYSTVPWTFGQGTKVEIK', 'MFI', 217);
